PROCEDURE SUMMARY: folding enthalpy; higher = less favourable; fluorescence melt of hairpins on a sequencing array, two-state fit
SETUP CONDITIONS: sodium 0.088 M
Listing of entries alongside the reported folding enthalpy.
# number only, unit kcal/mol dropped from output

Here are 5 sequences together with their reported answers.
* GCCTATCCGAAAGGAGGC (((..(((....)))))) | -20.7
* GTGCGCGAAAGCGTCCAC ((((((....)))..))) | -9.9
* GCGATCGAAAGATTCGC ((((((....))).))) | -45.1
* GATCACACGAGTGATC ((((((....)))))) | -43.6
* GCAGGAGGAAACTCCCAC (..((((....))))..) | -16.8

We next turn to a different sequence, shown below.
Incoming: Give its folding enthalpy value. Item: GTTTCACGAAAGTGCAAC (((.(((....))).)))
Outgoing: -26.9
